Source listed as paper doi:10.1101/2024.04.15.589505v1.

tgt: DENV2 protease (DENV2pro; DENV serotype 2 NS2B-NS3 protease construct, GGGGSGGGG-linked) (Dengue virus 2 Thailand/16681/84)
Sequence (P29990 1394-1440 limits assumed): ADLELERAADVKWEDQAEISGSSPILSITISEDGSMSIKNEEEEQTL
Sequence (P29990 1476-1660 limits assumed): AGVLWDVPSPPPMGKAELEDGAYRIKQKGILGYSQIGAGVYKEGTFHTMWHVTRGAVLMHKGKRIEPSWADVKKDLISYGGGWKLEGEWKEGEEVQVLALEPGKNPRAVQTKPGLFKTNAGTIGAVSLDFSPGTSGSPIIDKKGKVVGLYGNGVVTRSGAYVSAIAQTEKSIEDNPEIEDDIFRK
test_protocol: biochemical
pIC50: −log10 of the molar value.
attribute_measured: pIC50

CCCCCC(=O)N[C@H](C(=O)NCc1ccc(NC(=N)N)cc1)c1ccc(OCc2ccccc2)cc1 4.75
CC(C)(C)NC(=O)C(=O)/C=C/c1c[nH]c2ccccc12 4.43
N=C(N)NCCC[C@H](NC(=O)[C@H](CCCNC(=N)N)NC(=O)c1ccccc1)B(O)O 6.17
NC(=O)c1cccc(NC(=O)[C@@H](NC(=O)c2ccc(Oc3ccccc3)cc2)c2ccc(OCc3ccccc3)cc2)c1 5.27
